Test system: subclones of RKO colon adenocarcinoma cells (RKOp27 or RKOp21) arrested by Ponasterone A
Assay Remarks: Alamar Blue cell viability assay, cell cycle specific mode of action: cells arrested by ectopic p27Kip1 induced by Ponasterone A versus proliferating cells
Type: cell-based
Test Conditions: Homo sapiens, RKO p27 induced (arrested) cells, 10 μM Ponasterone A, 72 hours, value = class bound given in Table A, read-out: −logIC50 RKO p27 induced (arrested) (converted)

Compound | IC50
CCN(C)C(=O)OC1CCc2c(sc(NC(=O)/C=C/c3cccnc3)c2C#N)C1 (centres unmarked) [Example 91] | ≥ 100 µM
Cc1cc(CNC(=O)OC2CCc3c(sc(NC(=O)CC(C)c4ccccc4)c3C#N)C2)n(C)n1 (centres unmarked) [Example 302] | ≥ 50.1 µM
COc1cccc(CCC(=O)Nc2sc3c(c2C#N)CCC(OC(=O)N2CCOCC2)C3)c1 (centres unmarked) [Example 231] | ≥ 100 µM
CCOc1ccccc1CCC(=O)Nc1sc2c(c1C#N)CCC(COC(=O)NCc1ccccn1)C2 (centres unmarked) [Example 184] | ≥ 100 µM
N#Cc1c(NC(=O)/C=C/c2cccnc2)sc2c1CC[C@H](COC(=O)N1CCC[C@@H](O)C1)C2 [Example 87b] | ≥ 100 µM
COC1CN(C(=O)OCC2CCc3c(sc(NC(=O)/C=C/c4cccnc4)c3C#N)C2)C1 (centres unmarked) [Example 115] | ≥ 100 µM
N#Cc1c(NC(=O)/C=C/c2cccnc2)sc2c1CCC(COC(=O)NCCn1ccnc1)C2 (centres unmarked) [Example 30] | ≥ 100 µM
CC(CC(=O)Nc1sc2c(c1C#N)CCC(OC(=O)OCc1nccs1)C2)c1ccccc1 (centres unmarked) [Example 368] | ≥ 50.1 µM

----------
Tested on: subclones of RKO colon adenocarcinoma cells (RKOp27 or RKOp21) arrested by Ponasterone A
Assay Remarks: Alamar Blue cell viability assay, cell cycle specific mode of action: cells arrested by ectopic p27Kip1 induced by Ponasterone A versus proliferating cells
Type: cell-based
Test Conditions: Homo sapiens, RKO p27 induced (arrested) cells, 10 μM Ponasterone A, 72 hours, value = class bound given in Table A, read-out: −logIC50 RKO p27 induced (arrested) (converted)
Listing: IC50 of selected compounds
Measured Property: IC50

Compound | Target Under Test | Measured Property | Assay Result
N#Cc1c(NC(=O)/C=C/c2cccnc2)sc2c1CCC(COC(=O)NCC1CC1)C2 (centres unmarked) | subclones of RKO colon adenocarcinoma cells (RKOp27 or RKOp21) arrested by Ponasterone A | IC50 | ≥ 100 µM
COc1cccc(C(C)CC(=O)Nc2sc3c(c2C#N)CCC(COC(=O)NCc2ccccn2)C3)c1 (centres unmarked) | subclones of RKO colon adenocarcinoma cells (RKOp27 or RKOp21) arrested by Ponasterone A | IC50 | ≥ 50.1 µM
COc1cccc(C(C)CC(=O)Nc2sc3c(c2C#N)CCC(OC(=O)NCc2ccnn2C)C3)c1 (centres unmarked) | subclones of RKO colon adenocarcinoma cells (RKOp27 or RKOp21) arrested by Ponasterone A | IC50 | ≥ 100 µM
CC(C)CN(C)C(=O)OCC1CCc2c(sc(NC(=O)/C=C/c3cccnc3)c2C#N)C1 (centres unmarked) | subclones of RKO colon adenocarcinoma cells (RKOp27 or RKOp21) arrested by Ponasterone A | IC50 | ≥ 100 µM
Cc1nocc1CNC(=O)OC1CCc2c(sc(NC(=O)CC(C)c3ccccc3)c2C#N)C1 (centres unmarked) | subclones of RKO colon adenocarcinoma cells (RKOp27 or RKOp21) arrested by Ponasterone A | IC50 | ≥ 100 µM
CC(CC(=O)Nc1sc2c(c1C#N)CCC(COC(=O)NCc1cncn1C)C2)c1ccccc1 (centres unmarked) | subclones of RKO colon adenocarcinoma cells (RKOp27 or RKOp21) arrested by Ponasterone A | IC50 | ≥ 10 µM
N#Cc1c(NC(=O)/C=C/c2cccnc2)sc2c1CCC(OC(=O)NC1CCCCC1)C2 (centres unmarked) | subclones of RKO colon adenocarcinoma cells (RKOp27 or RKOp21) arrested by Ponasterone A | IC50 | ≥ 100 µM
N#Cc1c(NC(=O)/C=C/c2cccnc2)sc2c1CCC(OC(=O)N1CCOCC1)C2 (centres unmarked) | subclones of RKO colon adenocarcinoma cells (RKOp27 or RKOp21) arrested by Ponasterone A | IC50 | ≥ 100 µM

Hello, the source for this data is patent US20110044938A1, in case you need it.
